// kon lookup, one value per entry
test-system: T1, ANTIBODY EXPRESSION CONTROL
T1 construct: also called mouse anti-canine antibody (capture reagent of the expression control ELISA)
method-summary: SPR Biacore, expression control
Form entry: enter the amount, then its unit.

Mu_02D09_VH (SEQ ID NO: 31)_D31A (antibody, V domains shown) VH: EVQLVESGGGLVKPGGSLTLSCAASGFTFSAYGMHWLRQAPEKGLEWVAYISSGSRAVFFADTVKGRFTISRDNAKNTLFLQMTSLRSDDTAMYYCARDRYDGRGFAYWGQGTLVTVSA VL: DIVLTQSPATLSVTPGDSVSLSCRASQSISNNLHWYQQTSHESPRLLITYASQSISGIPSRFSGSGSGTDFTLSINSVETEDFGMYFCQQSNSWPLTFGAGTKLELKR; 1.21e+06 M⁻¹ s⁻¹

[Q] # get_value(readout='kon', item= Mu_02D09_VH (SEQ ID NO: 31)_R104A (antibody, V domains shown) VH: EVQLVESGGGLVKPGGSLTLSCAASGFTFSDYGMHWLRQAPEKGLEWVAYISSGSRAVFFADTVKGRFTISRDNAKNTLFLQMTSLRSDDTAMYYCARDRYDGAGFAYWGQGTLVTVSA VL: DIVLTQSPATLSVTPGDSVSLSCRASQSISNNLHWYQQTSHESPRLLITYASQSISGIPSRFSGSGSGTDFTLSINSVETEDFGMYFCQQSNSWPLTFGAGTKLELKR )
[A] 105000 M⁻¹ s⁻¹
